The measured values listed here are drawn from ChEMBL document CHEMBL4017481.

CC50 values by entry
test system: Vero; assay: Cytotoxicity against African green monkey Vero cells measured after 72 hrs by resazurin assay; format: cell-based; details: chlorocebus sabaeus, vero, 72 h
measurement kind: CC50

>>> observed_value("O=C(/C=C/c1ccc([N+](=O)[O-])o1)c1ccc(C2CCCCC2)cc1")
"> 100 µM"
>>> observed_value("O=C(/C=C/c1ccc([N+](=O)[O-])o1)c1ccc(N2CCNCC2)cc1")
"> 100 µM"
>>> observed_value("O=C(/C=C/c1ccc([N+](=O)[O-])o1)c1ccc(I)cc1")
"> 100 µM"
>>> observed_value("COc1ccc(/C=C/C(=O)c2cccc(I)c2)cc1")
"> 100 µM"
>>> observed_value("CSc1ccc(C(=O)/C=C/c2ccc([N+](=O)[O-])o2)cc1")
"40.7 µM"
>>> observed_value("CC(C)(C)c1ccc(C(=O)/C=C/c2ccc([N+](=O)[O-])s2)cc1")
"> 100 µM"
>>> observed_value("O=C(/C=C/c1ccc([N+](=O)[O-])o1)c1cccc(Br)c1")
"68.8 µM"
>>> observed_value("O=C(/C=C/c1ccc([N+](=O)[O-])o1)c1ccc(N2CCCCC2)cc1")
"349 µM"
